B1: glmS ribozyme (parent)
chain: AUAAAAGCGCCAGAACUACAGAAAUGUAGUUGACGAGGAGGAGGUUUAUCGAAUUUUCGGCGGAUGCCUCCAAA

variants of: B1; test: kcat; higher = faster cleavage; RNA array; conditions: with glucosamine-6-phosphate
This sample holds only a part of the variants without activity.
recorded-endpoint: kcat (s⁻¹)
The answer is to be given in s⁻¹; state only the numeric part.

Example variants with recorded kcat:
>>> quantitative_result("AUAAAAGCGCCAGAACUACAGAAAUGUAGUUGACGAGGAGGAGGUUUAUCGAAUUUCCGGCGGAUGCCUCCAAA")
0.000311
>>> quantitative_result("AUAAAAGCGACAGAACUACAGAAAUGUAGUUGACGAGGAGGAGGUUUAUCGAAUUUUCGGAGGAUGCCUCCAAA")
"2.22e-05"
>>> quantitative_result("AUAAAAGCGCCAGAACUACAGAAAUGUAGUUGACGAGGAGGAGGUUUAUAGAAGCUUCGGCGGAUGCCUCCAAA")
"1.47e-05"
>>> quantitative_result("AUAAAAGCGCCAGUACUACAGAAAUGUAGUUGACGAGGAGGAGGUUUAUCGAAUUUUCGGCGGAGGCCUCCAAA")
0.00172
>>> quantitative_result("AUAAAAGCGCCAGAACUACAGAAAUGUAGUUGACGAGGAGGAGGUUUAUCGACUGUUCGGCGGAUGCCUCCAAA")
0.00572

Return reported kcat. Input variant: "AUAAAAGCGCCAGAACUACAGAAAUGUAGUUGUCGAGGAGAAGGUUUAUCGAAGUUUCGGCGGAUGCCUCCAAA"
3.66e-05

Provide only the value of recorded kcat for "AUAAAAGCGCCAGAACUACAGAAAUGUAGUUGACGAGGAGGAGGUUUAUCGCAUUUUCGGCGGAUGCCUCUAAA"
1.4e-05
